- System: Rhodococcus ruber SC1
- procedure text: Growth of Rhodococcus ruber SC1 on cyclic ketones as sole carbon and energy source; also: key: +: grows well; −: does not grow
- Type: cell-based
- stated conditions: cyclic ketone as sole carbon and energy source
measure name: Growth of Rhodococcus ruber SC1

>  <structure smiles>
O=C1CCCCCCC1

>  <Growth of Rhodococcus ruber SC1>
−

$$$$
>  <structure smiles>
O=C1CCCCCCCCCCC1

>  <Growth of Rhodococcus ruber SC1>
+

$$$$
>  <structure smiles>
O=C1CCCCCCCCC1

>  <Growth of Rhodococcus ruber SC1>
+

$$$$
>  <structure smiles>
O=C1CCCCCCCCCC1

>  <Growth of Rhodococcus ruber SC1>
+

$$$$
>  <structure smiles>
O=C1CCCCCCCCCCCCCC1

>  <Growth of Rhodococcus ruber SC1>
+

$$$$
>  <structure smiles>
O=C1CCCCCCCCCCCC1

>  <Growth of Rhodococcus ruber SC1>
+

$$$$
>  <structure smiles>
O=C1CCCCC1

>  <Growth of Rhodococcus ruber SC1>
−

$$$$

INPUT: GET /values?readout=Growth of Rhodococcus ruber SC1&item= `O=C1CCCCCC1`
OUTPUT: −

* * *

- Test system: monooxygenase and esterase on the S8C
- procedure text: Production of different chain length hydroxy acids from cyclic ketones by recombinant E. coli cosmid clone S8C (GC/MS)
- Type: cell-based, Escherichia coli
- stated conditions: cyclic ketone substrate 250 mg/L
- Experimental: Transformed XL1-Blue MR cells were grown in M9 medium with 0.4% glucose as sole carbon source. Substrate for conversion was added at early log phase (OD=0.2) and cells were allowed to grow at 30° C. for 20 additional hours. […] Example 8 explores whether the cyclic substrates could be expanded to cyclic ketones of different chain length and whether corresponding hydroxy acids could be produced. […] Medium level of 15-hydroxy acid was detected from C15 cyclic ketone grown cells. […]
measure name: Corresponding hydroxy acid detected (in words)

Example results:
>  <compound>
O=C1CCCCCCCCCCC1 [C12, cyclododecanone]

>  <measured result>
Large amount

$$$$
>  <compound>
O=C1CCCCCCCCCCCC1 [C13, cyclotridecanone]

>  <measured result>
Large amount

$$$$
>  <compound>
O=C1CCCCC1 [C6, cyclohexanone]

>  <measured result>
Small amount

$$$$
>  <compound>
O=C1CCCCCCCCC1 [C10, cyclodecanone]

>  <measured result>
Small amount

$$$$

Now look at this entry.
INPUT: GET /values?readout=Corresponding hydroxy acid detected (in words)&item= O=C1CCCCCCCCCC1 [C11, cycloundecanone]
OUTPUT: Large amount
